Field: IC50. Provide a value for each of the compounds that follow.

query: Recall the reported IC50 of `COc1ccc(OC)c(C(=O)N[C@@H]2N=C(c3ccc(Cl)cc3)c3ccccc3NC2=O)c1` on HCV Polymerase (Hepatitis C virus genotype 1a, UniProt P27958) and write it down.
Sequence (P27958 2421-3011): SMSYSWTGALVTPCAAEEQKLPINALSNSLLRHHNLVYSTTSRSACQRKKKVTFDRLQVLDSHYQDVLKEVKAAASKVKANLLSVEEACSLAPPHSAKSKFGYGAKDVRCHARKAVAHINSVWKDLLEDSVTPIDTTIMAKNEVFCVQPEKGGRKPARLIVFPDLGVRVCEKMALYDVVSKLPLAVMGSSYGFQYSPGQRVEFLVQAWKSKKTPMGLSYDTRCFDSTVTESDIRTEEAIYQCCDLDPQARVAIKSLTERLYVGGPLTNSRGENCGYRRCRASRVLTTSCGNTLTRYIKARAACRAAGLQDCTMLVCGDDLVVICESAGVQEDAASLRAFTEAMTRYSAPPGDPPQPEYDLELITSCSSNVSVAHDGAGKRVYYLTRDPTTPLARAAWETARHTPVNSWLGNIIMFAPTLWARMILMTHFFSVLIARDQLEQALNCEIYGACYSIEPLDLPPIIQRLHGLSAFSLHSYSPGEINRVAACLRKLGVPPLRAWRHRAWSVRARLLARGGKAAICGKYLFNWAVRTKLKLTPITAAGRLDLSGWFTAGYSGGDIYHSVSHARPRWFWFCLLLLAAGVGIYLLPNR
result: > 1000 nM

query: Recall the reported IC50 of COc1ccc(OC)c(C(=O)NC2N=C(c3ccc(Cl)cc3)c3ccccc3NC2=O)c1 (stereo not shown) on HCV Polymerase (Hepatitis C virus genotype 1a, UniProt P27958) and write it down.
result: < 1000 nM

query: Recall the reported IC50 of COc1ccc(Cl)cc1C(=O)NC1N=C(c2ccc(Cl)cc2)c2ccccc2NC1=O (stereo not shown) on HCV Polymerase (Hepatitis C virus genotype 1a, UniProt P27958) and write it down.
result: < 1000 nM

query: Recall the reported IC50 of `COc1ccc(Cl)cc1C(=O)N[C@H]1N=C(c2ccc(Cl)cc2)c2ccccc2NC1=O` on HCV Polymerase (Hepatitis C virus genotype 1a, UniProt P27958) and write it down.
result: < 1000 nM
